# key: entry, value: drug sensitivity score
System: CAF#3 (primary prostate cancer-associated fibroblasts of myCAF-like type)
Assay: drug sensitivity score (DSS2, normalised partial AUC of dose-response, 72 h CellTiter-Glo viability) (DSS (dimensionless)); higher = more sensitive (stronger growth inhibition / cytotoxicity); extreme values may be limits of the assay
Please respond with just the number, no unit label.

Worked examples follow.
compound	drug sensitivity score
C#Cc1cccc(Nc2ncnc3cc4c(cc23)OCCOCCOCCO4)c1 [Icotinib] (tested concentration range 1-10000 nM)	2.3
CO[C@@H](C)Cn1c(=O)n(C)c2cnc3ccc(-c4cncc(C(C)(C)O)c4)cc3c21 (tested concentration range 0.2-2500 nM)	10.3
O=C(O)CC[C@H]1CC[C@@](c2cc(F)ccc2F)(S(=O)(=O)c2ccc(Cl)cc2)CC1 [MK-0752] (tested concentration range 0.1-1000 nM)	0
Cc1c(Cn2c(C)nc3c(C(=O)O)cc(N4CCOCC4)cc32)cccc1C(F)(F)F (tested concentration range 1-10000 nM)	6.2
N.N.[Cl][Pt][Cl] [Cisplatin] (tested concentration range 10-100000 nM)	5.7
Cc1ccc(C(=O)Nc2cccc(C(F)(F)F)c2)cc1Nc1nc(-c2cccnc2)nc2c1cnn2C [NVP-BHG712] (tested concentration range 1-10000 nM)	0

(Q) Using the record for CNC(=O)c1ccc(-c2cnc3ncc(Cc4ccc5ncccc5c4)n3n2)cc1F [Capmatinib] (tested concentration range 0.1-1000 nM) , report its drug sensitivity score.
(A) 0

(Q) Using the record for CC(C)[C@@H](CS(=O)(=O)C(C)C)N1C(=O)[C@@](C)(CC(=O)O)C[C@H](c2cccc(Cl)c2)[C@H]1c1ccc(Cl)cc1 [KRT-232] (tested concentration range 1-10000 nM) , report its drug sensitivity score.
(A) 6.3

(Q) Using the record for CC(C)NC(=O)COc1cccc(-c2nc(Nc3ccc4[nH]ncc4c3)c3ccccc3n2)c1 [KD025] (tested concentration range 0.5-5000 nM) , report its drug sensitivity score.
(A) 2.2

(Q) Using the record for COCCNCc1ccc(-c2cc3nccc(Oc4ccc(NC(=S)NC(=O)Cc5ccc(F)cc5)cc4F)c3s2)nc1 [Glesatinib] (tested concentration range 0.2-2500 nM) , report its drug sensitivity score.
(A) 4.4

(Q) Using the record for CC(=O)[C@]1(O)Cc2c(O)c3c(c(O)c2[C@@H](O[C@H]2C[C@H](N)[C@H](O)[C@H](C)O2)C1)C(=O)c1ccccc1C3=O [Idarubicin] (tested concentration range 0.1-1000 nM) , report its drug sensitivity score.
(A) 4.4

(Q) Using the record for CN(C)C(=N)NC(=N)N [Metformin] (tested concentration range 10-100000 nM) , report its drug sensitivity score.
(A) 0

###

Tested on: CAF#2 (primary prostate cancer-associated fibroblasts of iCAF-like type)
Test: drug sensitivity score (DSS2, normalised partial AUC of dose-response, 72 h CellTiter-Glo viability) (DSS (dimensionless)); higher = more sensitive (stronger growth inhibition / cytotoxicity); extreme values may be limits of the assay
# key: entry, value: drug sensitivity score

Worked examples follow.
compound	target or test system	drug sensitivity score
CC(=O)c1cc2c(o1)C(=O)c1ccccc1C2=O [Napabucasin] (tested concentration range 2-20000 nM)	CAF#2	22.6
CN1CCc2c(c3ccccc3n2Cc2ccc(C(=O)NO)cc2)C1 [Tubastatin A] (tested concentration range 1-10000 nM)	CAF#2	0.2
C=CC[C@@H]1/C=C(\C)C[C@H](C)C[C@H](OC)[C@H]2O[C@@](O)(C(=O)C(=O)N3CCCC[C@H]3C(=O)O[C@H](/C(C)=C/[C@@H]3CC[C@@H](O)[C@H](OC)C3)[C@H](C)[C@@H](O)CC1=O)[C@H](C)C[C@@H]2OC [Tacrolimus] (tested concentration range 1-10000 nM)	CAF#2	2.7

(Q) Using the record for COc1cc2ncnc(Nc3cccc(Cl)c3F)c2cc1OC(=O)N1CCN(C)C[C@H]1C [AZD3759] (tested concentration range 0.1-1000 nM) , report its drug sensitivity score.
(A) 0

(Q) Using the record for CCCN(CCC)C(=O)C1=Cc2ccc(-c3ccc(C(=O)N4CCCC4)cc3)cc2N=C(N)C1 [Motolimod] (tested concentration range 1-10000 nM) , report its drug sensitivity score.
(A) 1

(Q) Using the record for CC(=O)c1c(C)c2cnc(Nc3ccc(N4CCNCC4)cn3)nc2n(C2CCCC2)c1=O [Palbociclib] (tested concentration range 1-10000 nM) , report its drug sensitivity score.
(A) 7.4
